# PBM binding z-score per record follows
# Test system: RARa:RXR (NR concentration 270 nM, RXRa partner concentration 90 nM)
# PROCEDURE SUMMARY: PBM binding z-score (relative to random genomic background probes); higher = stronger binding; sequences stand for … in GC…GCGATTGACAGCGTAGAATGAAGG

[
  {
    "SEQUENCE DATA": "CCTAGATGGTCAGGAGGTCACACACCGGATATGA",
    "PBM binding z-score": 4.94
  },
  {
    "SEQUENCE DATA": "CTCGAAAGGTGGTGCTCAGGTGAGTATACCAAAC",
    "PBM binding z-score": 0.343
  },
  {
    "SEQUENCE DATA": "CGTCAAAGTTCAAGGCAACGTAACAGAAAGCAGC",
    "PBM binding z-score": 2.87
  },
  {
    "SEQUENCE DATA": "ATCGAAAGGTCGTGAAGTGAGTATACAGAAAGGC",
    "PBM binding z-score": 3.39
  },
  {
    "SEQUENCE DATA": "ATATGGAGGTTAGCTGGGGTCATTCAGACTAGGC",
    "PBM binding z-score": 5.62
  },
  {
    "SEQUENCE DATA": "CCGAGTTGGTTACGAGGGGGCATTCAGTGCGAAT",
    "PBM binding z-score": 2.14
  },
  {
    "SEQUENCE DATA": "CCGAGTAGGTTACGAGGGGGCATTCATTGCGAAT",
    "PBM binding z-score": 2.77
  },
  {
    "SEQUENCE DATA": "CGAACTAGGTCAAAGGGCAGTGAAAGGCGACGTA",
    "PBM binding z-score": 4.78
  },
  {
    "SEQUENCE DATA": "AATACAGGGACATCGTAGGCCAGAGTACGCACAG",
    "PBM binding z-score": -0.225
  },
  {
    "SEQUENCE DATA": "CTATGGAGGTTAAGGGGGTCATTCAGTTTGAAAG",
    "PBM binding z-score": 6.29
  },
  {
    "SEQUENCE DATA": "AATACAGGGTCACTGGGCCAGAGTAGGTACGAAT",
    "PBM binding z-score": 4.88
  },
  {
    "SEQUENCE DATA": "CAAACTAGGTCAAGGTCAAAGTAGGTTTGTGCCA",
    "PBM binding z-score": 5.43
  },
  {
    "SEQUENCE DATA": "CGAACTAGGTCACCATGACAGTGAAGAGGTTGGA",
    "PBM binding z-score": 2.42
  },
  {
    "SEQUENCE DATA": "CCGAGTAGGTTACGAGGGGGCATCCAGTGCGAAT",
    "PBM binding z-score": 2.86
  },
  {
    "SEQUENCE DATA": "TCGAGTAGATTACGGGGGCATTCAGGGATGAAGA",
    "PBM binding z-score": 2.08
  },
  {
    "SEQUENCE DATA": "AGTCAAAGGTCAGGACGAGGTAACGTAAAGCACG",
    "PBM binding z-score": 5.78
  },
  {
    "SEQUENCE DATA": "CGTCCAAGGTCAATGCAAGGTCAGTGAAAGCATT",
    "PBM binding z-score": 6.91
  },
  {
    "SEQUENCE DATA": "CCGAGTAGGTTACGAGGCGGCATTCAGTGCGAAT",
    "PBM binding z-score": 0.2
  },
  {
    "SEQUENCE DATA": "ACTAGTAGGTCAGCTGAGGTCACACACAATTCGG",
    "PBM binding z-score": 6.25
  },
  {
    "SEQUENCE DATA": "CGTCCGAGGTCAAAGGTCAGTGAAGAGATGACGG",
    "PBM binding z-score": 8.81
  },
  {
    "SEQUENCE DATA": "TTACCAAGGTCAGCTGAGGTCGTTGATCCAACTC",
    "PBM binding z-score": 4.4
  },
  {
    "SEQUENCE DATA": "CGAATTAGGTCACCAGGACAGTGAAGAGGTTGGA",
    "PBM binding z-score": 2.92
  },
  {
    "SEQUENCE DATA": "CTATGTAGGTTGAGGGGGTCATTCAGTTTGAAAG",
    "PBM binding z-score": 5.29
  },
  {
    "SEQUENCE DATA": "ATATGTAGGTTAGGGTCATACAGAAAGTAGGGAA",
    "PBM binding z-score": 5.03
  },
  {
    "SEQUENCE DATA": "CGTCTAAGGTCAAGGTCAGTGAAAGAGACTCGAA",
    "PBM binding z-score": 5.75
  },
  {
    "SEQUENCE DATA": "GCTTACGGGTCAAAGGTTATGGCATGAATAGAAT",
    "PBM binding z-score": 8.41
  }
]

* * *

# Test system: THRa:RXRa (NR concentration 90 nM, RXRa partner concentration 90 nM)
# PROCEDURE SUMMARY: PBM binding z-score (relative to random genomic background probes); higher = stronger binding; sequences stand for … in GC…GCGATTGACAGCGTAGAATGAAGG
# PBM binding z-score per record follows

[
  {
    "SEQUENCE DATA": "CGAACTAGGTCACCAGGACAGTAAAGAGGTTGGA",
    "PBM binding z-score": 3.29
  },
  {
    "SEQUENCE DATA": "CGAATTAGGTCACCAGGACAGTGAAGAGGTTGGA",
    "PBM binding z-score": 3.98
  },
  {
    "SEQUENCE DATA": "CCTAGTTGGTCAAGGTCCCACACGCTATAGGTAC",
    "PBM binding z-score": 0.687
  },
  {
    "SEQUENCE DATA": "CGAACTAAGTCACCAGGACAGTGAAGAGGTTGGA",
    "PBM binding z-score": 1.27
  },
  {
    "SEQUENCE DATA": "TTACCAAGGTAAAAGGTCGTTGATGCACGCCTTG",
    "PBM binding z-score": 2.63
  },
  {
    "SEQUENCE DATA": "ATATGTAGGTTACCGGGTCATTCAGTTTGCGCAT",
    "PBM binding z-score": 3.37
  },
  {
    "SEQUENCE DATA": "CGAAGTAGGTCACCAGGACAGTGAAGAGGTTGGA",
    "PBM binding z-score": 2.85
  },
  {
    "SEQUENCE DATA": "CGAACTAGGTGACCAGGACAGTGAAGAGGTTGGA",
    "PBM binding z-score": 1.36
  },
  {
    "SEQUENCE DATA": "GCTAGTTTGTCAGTAAAAGGTCACACACCGGTCG",
    "PBM binding z-score": 3.6
  },
  {
    "SEQUENCE DATA": "CGTCCAAGGTCACAGGAGGTCAGTGAAGACAGAT",
    "PBM binding z-score": 5.28
  },
  {
    "SEQUENCE DATA": "TCGAGTAGGTTACTGGGGCATTCAGGGATGAAGA",
    "PBM binding z-score": 1.83
  },
  {
    "SEQUENCE DATA": "AAATGTAGGTTAGGGTCATTCAGAAAGTAGGGAA",
    "PBM binding z-score": 4.02
  }
]

* * *

# Test system: VDR homodimer (NR concentration 270 nM)
# PROCEDURE SUMMARY: PBM binding z-score (relative to random genomic background probes); higher = stronger binding; sequences stand for … in GC…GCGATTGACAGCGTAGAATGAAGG

[
  {
    "SEQUENCE DATA": "CGTCCAAGCTCAGCAGGTCAGTGAAAGCGACGTG",
    "PBM binding z-score": -0.808
  },
  {
    "SEQUENCE DATA": "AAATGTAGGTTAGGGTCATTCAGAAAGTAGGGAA",
    "PBM binding z-score": 3.92
  },
  {
    "SEQUENCE DATA": "ATCTCTAGGTAACAAGGTCAGTGAAAGAGAGGAC",
    "PBM binding z-score": 1.78
  },
  {
    "SEQUENCE DATA": "CGAACTAGGTCACCAGGACGGTGAAGAGGTTGGA",
    "PBM binding z-score": 0.435
  },
  {
    "SEQUENCE DATA": "CGTCCAAGGTCACCAGGTCAGTGAAAGCGACGTG",
    "PBM binding z-score": 3.44
  },
  {
    "SEQUENCE DATA": "GCTGCTAGGTTAACTGATGGTCAGCTAAAGCTCG",
    "PBM binding z-score": -0.649
  },
  {
    "SEQUENCE DATA": "CGAACTAGGTCAAAGTACAGTGAAAGGCGACGTA",
    "PBM binding z-score": 0.766
  },
  {
    "SEQUENCE DATA": "CCTTACGGGTCAGGAGGTTATAGCACGACGAGCG",
    "PBM binding z-score": 0.418
  },
  {
    "SEQUENCE DATA": "CGTCCAAGGTCAAAGGTCAGTAAAGAGATGACGG",
    "PBM binding z-score": 3.52
  },
  {
    "SEQUENCE DATA": "CTAACTAGGTCAAAGGACAGTGAAAGGCGACGTA",
    "PBM binding z-score": 0.409
  },
  {
    "SEQUENCE DATA": "ATCGAAAAGTCGAAGGTGAGTATACCCACCCGAA",
    "PBM binding z-score": -0.0912
  },
  {
    "SEQUENCE DATA": "TCATATAGGTTAAGGTGAAAGTCGAACGATATGA",
    "PBM binding z-score": 0.253
  }
]
